Biological target: Mast/stem cell growth factor receptor Kit (Homo sapiens, UniProt P10721)
Sequence (P10721 whole entry): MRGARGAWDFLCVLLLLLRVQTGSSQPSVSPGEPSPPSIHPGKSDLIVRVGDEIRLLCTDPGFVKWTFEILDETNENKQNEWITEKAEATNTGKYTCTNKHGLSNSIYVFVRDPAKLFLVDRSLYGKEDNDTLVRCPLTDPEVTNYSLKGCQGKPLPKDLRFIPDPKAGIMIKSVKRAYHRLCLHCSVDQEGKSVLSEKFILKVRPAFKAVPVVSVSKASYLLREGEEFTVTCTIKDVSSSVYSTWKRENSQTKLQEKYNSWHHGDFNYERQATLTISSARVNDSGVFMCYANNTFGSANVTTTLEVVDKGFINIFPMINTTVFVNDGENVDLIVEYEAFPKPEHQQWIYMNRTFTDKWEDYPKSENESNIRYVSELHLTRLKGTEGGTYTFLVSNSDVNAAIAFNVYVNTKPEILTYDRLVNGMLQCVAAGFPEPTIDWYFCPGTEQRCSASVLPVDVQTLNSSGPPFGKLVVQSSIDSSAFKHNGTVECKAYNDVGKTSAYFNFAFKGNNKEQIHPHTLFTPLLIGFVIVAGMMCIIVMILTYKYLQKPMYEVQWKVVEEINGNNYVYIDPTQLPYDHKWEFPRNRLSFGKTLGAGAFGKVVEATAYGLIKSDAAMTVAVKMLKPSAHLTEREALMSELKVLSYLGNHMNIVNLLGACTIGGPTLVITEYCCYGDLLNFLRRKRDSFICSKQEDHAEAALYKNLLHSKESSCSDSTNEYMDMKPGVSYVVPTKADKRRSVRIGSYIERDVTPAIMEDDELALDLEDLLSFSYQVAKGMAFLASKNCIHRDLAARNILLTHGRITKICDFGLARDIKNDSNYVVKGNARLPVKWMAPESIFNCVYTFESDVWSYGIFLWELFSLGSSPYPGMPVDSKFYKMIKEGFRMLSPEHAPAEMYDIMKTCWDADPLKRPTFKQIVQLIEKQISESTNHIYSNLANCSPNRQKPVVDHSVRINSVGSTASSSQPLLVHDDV
metric: pIC50
# log scale: pIC50 equals minus log10 of the concentration in mol/L

Consider the molecule shown here: "CCOC(=O)c1ccc(Nc2ccnc(SCC(=O)c3ccc(C#N)cc3)n2)cc1" What is its recorded pIC50?
5.29

====

Test system: SNB-75
Test: Growth inhibition of human SNB75 cells at 10 uM incubated for 48 hrs by sulforhodamine B assay relative to control
Type: functional
Settings: SNB-75, 48 h, read-out: GI
# Lookup of reported inhibition of growth at 10 µM keyed by entry
Respond with the bare value in %.

Consider the worked cases shown below.
O=C(CSc1nccc(Nc2ccc(N3CCOCC3)cc2)n1)c1ccc(F)cc1 ... 65
CC(=O)c1cccc(Nc2ccnc(SCC(=O)c3ccc(C(F)(F)F)cc3)n2)c1 ... 32
COc1ccc(C(=O)CSc2nccc(Nc3cccc(C(C)=O)c3)n2)cc1 ... 31
O=C(O)c1ccc(Nc2ccnc(SCC(=O)c3ccc(C(F)(F)F)cc3)n2)cc1 ... 28
CC(=O)c1ccc(Nc2ccnc(SCC(=O)c3ccc(Br)cc3)n2)cc1 ... 13

Notebook: pull reported inhibition of growth at 10 µM for SNB-75, entry "O=C(CSc1nccc(Nc2ccc(N3CCOCC3)cc2)n1)c1ccc(Cl)cc1"
36
